Exercise: for every item that follows, state its recorded kon.
Molecular target: T1, human-CD40-monomer protein (human, UniProt P25942 21-193, limits assumed)
T1 construct: Soluble monomer generated in house, used as SPR analyte; also called hCD40; hCD40-monomer
T1 sequence (P25942 21-193 limits assumed): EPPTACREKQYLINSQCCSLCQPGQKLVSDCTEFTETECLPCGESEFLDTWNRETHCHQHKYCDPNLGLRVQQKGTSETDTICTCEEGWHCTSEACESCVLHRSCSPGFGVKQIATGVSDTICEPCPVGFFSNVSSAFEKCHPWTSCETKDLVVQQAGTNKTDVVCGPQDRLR
Test: SPR, Ab captured on protein A, hCD40 monomer 500 and 50 nM, 1:1 fit; supernatant
State just the number; it will be interpreted in M⁻¹ s⁻¹.

Any idea what kon was measured for Y12XX-hz9 (antibody, human IgG1, kappa, V domains shown, Humanized, IgG1-P238K; supernatant sample) VH: QVQLVQSGAEVKKPGSSVKVSCKASGYAFTSYWMHWVRQAPGQGLEWMGQINPSNGRSQYNEKFKTRVTITADKSTSTAYMELSSLRSEDTAVYYCARWGLQPFAYWGQGTLVTVSS VL: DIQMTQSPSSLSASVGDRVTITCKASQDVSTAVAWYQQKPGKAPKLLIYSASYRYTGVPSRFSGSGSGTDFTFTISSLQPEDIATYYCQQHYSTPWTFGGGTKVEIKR ? 200000

Can you handle Y12XX-hz23 (antibody, human IgG1, kappa, V domains shown, Humanized, IgG1-P238K; supernatant sample) VH: QVQLVQSGAEVKKPGSSVKVSCKASGYAFTSYWMHWVRQAPGQGLEWMGQINPSNGRSQYNEKFKTRVTITADKSTSTAYMELSSLRSEDTAVYYCARWGLQPFAYWGQGTLVTVSS VL: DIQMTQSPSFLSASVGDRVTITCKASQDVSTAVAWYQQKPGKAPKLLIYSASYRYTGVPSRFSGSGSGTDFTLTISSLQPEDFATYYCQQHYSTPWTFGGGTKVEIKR next? 200000

Can you handle Y12XX-hz8 (antibody, human IgG1, kappa, V domains shown, Humanized, IgG1-P238K; supernatant sample) VH: QVQLVQSGAEVKKPGSSVKVSCKASGYAFTSYWMHWVRQAPGQGLEWMGYINPTTGYSAYNQKFKDKATLTADKSTSTAYMELSSLRSEDTAVYYCARWDARPFAYWGQGTLVTVSS VL: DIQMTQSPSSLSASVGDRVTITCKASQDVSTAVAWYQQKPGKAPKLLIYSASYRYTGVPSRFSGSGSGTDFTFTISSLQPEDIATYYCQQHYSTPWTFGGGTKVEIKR next? 720000
